Experiment: NCI Yeast Anticancer Drug Screen. Data for the bub3 strain (AID 167)
Details: S. cerevisiae bub3 mutant strain, at 50.0 µM, stronger effect = higher value
Procedure: Growth inhibition of yeast strains with defined genetic alterations is measured as a screen for potential anti-cancer activity. Selected strains with alterations in DNA damage repair or cell cycle control were exposed to compounds and growth inhibition was measured relative to vehicle treated controls. The strain used in this assay is bub3
This is part of a sample that, as a whole, favours compounds with a hit. Of some 79,000 tested, about 15% had one in any assay.
# label = 1 (yes) if growth inhibition >= 10% else 0 (no)

// query # bool: growth inhibition of O=[N+]([O-])c1ccc(-c2ccc(-c3ccccc3)cc2)cc1 >= 10%
// result 0 (no)

// query # bool: growth inhibition of Cc1noc2ncnc(NCCCN(C)C)c12 >= 10%
// result 0 (no)

====

experiment: NCI Yeast Anticancer Drug Screen. Data for the mec2-1 strain (AID 157); conditions: S. cerevisiae mec2-1 strain, at 50.0 µM, stronger effect = higher value
Compounds without any hit were thinned out: in the full panel of roughly 79,000, 15% have a hit.
Below is a list of entries, each paired with its recorded growth inhibition value.
Numbers only; they are read as %.

{"columns": ["compound", "growth inhibition (%)"],
 "data": [
  ["COC(=O)c1ccc(C(=O)c2ccccc2)cc1", 9.15],
  ["Cc1nc2c3c4c(sc3nc(C)n2n1)CCCC4", 10.3]
]}

// query Which growth inhibition value is on record for CC(=O)OC1COC(N2C(=O)C(=O)c3cc(Br)c([N+](=O)[O-])cc32)C(OC(C)=O)C1OC(C)=O (stereo not given) ?
// result 12.2

// query Which growth inhibition value is on record for O=C(CCCSCCCC(=O)N/N=C/c1ccccc1O)N/N=C\c1ccccc1O ?
// result -0.5

// query Which growth inhibition value is on record for NNC(=S)NNc1ccccc1 ?
// result 42.4

// query Which growth inhibition value is on record for CCCCCCC(/C=N\N=C\c1ccco1)=C\c1ccccc1 ?
// result 6.15

// query Which growth inhibition value is on record for C=CCOc1ccc(Cl)cc1Br ?
// result -4.6

====

Below is a list of entries, each paired with its recorded growth inhibition value.
experiment: NCI Yeast Anticancer Drug Screen. Data for the mlh1 rad18 strain (AID 175); conditions: S. cerevisiae mlh1 rad18 strain growth inhibition; at 50.0 µM; stronger effect = higher value
The panel holds about 79,000 compounds, 15% with a hit somewhere; the sample as a whole holds those more often.
Numbers only; they are read as %.

# count of solved cases: 3
{"columns": ["compound", "growth inhibition (%)"],
 "data": [
  ["CCOC(=O)CC(C)(O)c1ccccc1 (centres undefined)", 0.15],
  ["O=C(Nc1cccc2ccccc12)c1ccco1", 7.9],
  ["CCOC(=O)c1cn2c(nc1=O)N[C@H]1CCCC[C@@H]12", -1]
]}

// query Which growth inhibition value is on record for O=P1(O)c2ccccc2Oc2ccccc21 ?
// result -44.5

// query Which growth inhibition value is on record for NC(=S)N/N=C/c1ccc2c(c1)OCO2 ?
// result 13.1

// query Which growth inhibition value is on record for N#CC(c1ccccc1)N(C(N)=O)c1ccccc1 (centres undefined) ?
// result 4.2

// query Which growth inhibition value is on record for CC(C)CCCC(C)CCCl (centres undefined) ?
// result -0.2

// query Which growth inhibition value is on record for CC(=O)Oc1c(C(C)(C)C)cc([N+](=O)[O-])c(C)c1[N+](=O)[O-] ?
// result 95.2

// query Which growth inhibition value is on record for CCc1ccccc1NC(=O)C1=C(C)NC(C)=C(C(=O)Nc2ccccc2CC)C1c1ccc(NC(C)=O)cc1 ?
// result -4.25

// query Which growth inhibition value is on record for CCOC(=O)C(C(=O)OCC)=C(N)C(Cl)(Cl)Cl ?
// result -1.9

// query Which growth inhibition value is on record for COc1cccc(CCNc2ccncc2N)c1 ?
// result 12.9

// query Which growth inhibition value is on record for Cc1cc(C)n2c(-c3ccccc3)nnc2c1 ?
// result -8.85

// query Which growth inhibition value is on record for CCNC(=S)NC1CCCCC1 ?
// result 12.3

// query Which growth inhibition value is on record for O/N=C1/COC(C(F)(F)F)(C(F)(F)F)C1 ?
// result -45.5

// query Which growth inhibition value is on record for CCC(CC)C1CC[N-]CC1.CCC(CC)C1CC[N-]CC1.CCC(CC)C1CC[N-]CC1.CCC(CC)C1CC[N-]CC1.N#C[S-].N#C[S-].[Co] ?
// result 29.7
